# System: M. tuberculosis H37Rv growth inhibition
# PROCEDURE_DETAILS: Mycobacterium tuberculosis H37Rv growth inhibition, putative kinase inhibitor library, confirmatory dose response (AID 2842);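 also: bacteria incubated one week before Alamar blue readout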
READOUT_TYPE: IC90

# query: IC90 | item "Cc1ccc(C)c(-c2nnc(NC(=O)CCc3ccccc3)o2)c1" | system: M. tuberculosis H37Rv growth inhibition
10.9 µg/mL

# query: IC90 | item "Cc1ccccc1C(=O)Nc1nnc(-c2ccncc2)o1" | system: M. tuberculosis H37Rv growth inhibition
13.5 µg/mL

# query: IC90 | item CC(C)(C)c1ccc(C(=O)N2CC(=O)Nc3ccc(Cl)cc3C2c2ccc(F)cc2)cc1 (stereo unspecified) | system: M. tuberculosis H37Rv growth inhibition
9.95 µg/mL

# query: IC90 | item "CC(=O)c1cccc(Nc2nc(Nc3ccc(F)c(Cl)c3)nc(N3CCOCC3)n2)c1" | system: M. tuberculosis H37Rv growth inhibition
8.38 µg/mL

# query: IC90 | item "Cc1c(Cc2ccc(Cl)cc2)c(NCCCN(C)C)n2c(nc3ccccc32)c1C#N" | system: M. tuberculosis H37Rv growth inhibition
2.21 µg/mL

# query: IC90 | item "O=C(OCc1nc2ccccc2s1)c1ccc(F)cc1" | system: M. tuberculosis H37Rv growth inhibition
15.4 µg/mL

# query: IC90 | item "O=C(CS(=O)(=O)c1ccccc1)Nc1nc(-c2ccc3c(c2)CCCC3)cs1" | system: M. tuberculosis H37Rv growth inhibition
1.02 µg/mL

# query: IC90 | item "CC(C)C(=O)Nc1nnc(-c2ccc3c(c2)OCCO3)o1" | system: M. tuberculosis H37Rv growth inhibition
52.3 µg/mL

# query: IC90 | item "CCN1CCc2c(sc(NC(=O)c3ccc([N+](=O)[O-])o3)c2C(N)=O)C1" | system: M. tuberculosis H37Rv growth inhibition
6.91 µg/mL

# query: IC90 | item "COc1ccccc1C(=O)Nc1nnc(-c2cc(C)ccc2C)o1" | system: M. tuberculosis H37Rv growth inhibition
1.92 µg/mL

# query: IC90 | item CC1CCc2nc(Nc3nc4cc5c(cc4s3)OCO5)sc2C1 (stereo unspecified) | system: M. tuberculosis H37Rv growth inhibition
14.4 µg/mL

----------
Provide the reported IC90 of each item.
# System: M. tuberculosis H37Rv growth inhibition
# PROCEDURE_DETAILS: Mycobacterium tuberculosis H37Rv growth inhibition, putative kinase inhibitor library, confirmatory dose response (AID 2842);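 also: bacteria incubated one week before Alamar blue readout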

Record request: IC90 value, item "Cc1c(C)n2c3c(=O)[nH]c(=O)n(C)c3nc2n1-c1ccccc1O"
0.75 µg/mL

Record request: IC90 value, item "Cc1ccc2c(c1)c1nnc(-c3ccc4c(c3)OCO4)c-1cn2Cc1cccc(F)c1"
3.39 µg/mL

Record request: IC90 value, item "c1ccc2c(c1)CCN(c1nc3cc4c(cc3s1)OCCO4)C2"
16 µg/mL

Record request: IC90 value, item "c1ccc2sc(Nc3nc4cc5c(cc4s3)OCO5)nc2c1"
18.6 µg/mL

Record request: IC90 value, item "Cc1ccc(-n2ncc3c(NCc4cccnc4)ncnc32)cc1C"
6.03 µg/mL

Record request: IC90 value, item "COc1cc(OC)cc(-c2nnc(NC(=O)c3ccc([N+](=O)[O-])o3)o2)c1"
9.08 µg/mL
